Source listed as patent US10626144B2.

- Tested on: Escherichia coli ATCC 25922
- Method Summary: MIC, broth microdilution (CLSI), reference strain
- Assay Conditions: CAMHB
Square brackets hold non-standard residues; d marks the D form. Peptide text beside a SMILES is read from it. * marks the point of attachment. Phe(2,4-Me2) = Cc1ccc(C[C@H](N)C(=O)O)c(C)c1; Phe(3,5-F2) = N[C@@H](Cc1cc(F)cc(F)c1)C(=O)O; Phe(4-CN) = N#Cc1ccc(C[C@H](N)C(=O)O)cc1; Phe(4-Cl) = N[C@@H](Cc1ccc(Cl)cc1)C(=O)O; Pro(cis-4-F) = O=C(O)[C@@H]1C[C@H](F)CN1; Dab(3S-OH) = NC[C@H](O)[C@H](N)C(=O)O; Lys(iPr) = CC(C)NCCCC[C@H](N)C(=O)O; 2Pal = N[C@@H](Cc1ccccn1)C(=O)O; ΔZArg = N=C(N)NCC/C=C(\N)C(=O)O; dOrn = NCCC[C@@H](N)C(=O)O; Dab = NCC[C@H](N)C(=O)O; NH(CH2)4NH2 = NCCCCN*
Quantity Name: Ec: MIC Escherichia coli ATCC 25922

The following molecules have reported results that may help.
Cc1ccc(C[C@H](NC(=O)[C@@H]2CCCN2C(=O)[C@@H](CCCN)NC(=O)CNC(=O)[C@H](C)NC(=O)[C@@H](NC(=O)[C@@H](N)CCCCN)[C@@H](O)CN)C(=O)N[C@@H](CCCCN)C(=O)N/C(=C\CCNC(=N)N)C(=O)O)c(C)c1 [24.78] (H-K[Dab(3S-OH)]AG[dOrn]P[Phe(2,4-Me2)]K[ΔZArg]-OH)
+ (≤32 μg/mL)
C[C@@H](O)[C@H](NC(=O)[C@@H](NC(=O)[C@@H](N)CCCCN)[C@@H](O)CN)C(=O)NCC(=O)N[C@H](CCCN)C(=O)N1CCC[C@H]1C(=O)N[C@@H](Cc1cnc[nH]1)C(=O)N[C@@H](CCCCN)C(=O)N/C(=C\CCNC(=N)N)C(=O)O [25.3] (H-K[Dab(3S-OH)]TG[dOrn]PHK[ΔZArg]-OH)
+ (≤32 μg/mL)
N#Cc1ccc(C[C@H](NC(=O)[C@@H]2CCCN2C(=O)[C@@H](CCCN)NC(=O)CNC(=O)[C@H](CCN)NC(=O)[C@@H](NC(=O)[C@@H](N)CCCCN)[C@@H](O)CN)C(=O)N[C@@H](CCCCN)C(=O)N/C(=C\CCNC(=N)N)C(=O)O)cc1 [21.9] (H-K[Dab(3S-OH)][Dab]G[dOrn]P[Phe(4-CN)]K[ΔZArg]-OH)
++ (≤8 μg/mL)
COC(=O)CC[C@H](NC(=O)[C@@H]1CCCN1C(=O)[C@@H](CCCN)NC(=O)CNC(=O)[C@H](C)NC(=O)[C@@H](NC(=O)[C@@H](N)CCCCN)[C@@H](O)CN)C(=O)N[C@@H](CCCCN)C(=O)N/C(=C\CCNC(=N)N)C(=O)O [24.120] (H-K[Dab(3S-OH)]AG[dOrn]PE(OMe)K[ΔZArg]-OH)
+ (≤32 μg/mL)

Look up Ec: MIC Escherichia coli ATCC 25922 for the entries below, preserving their order.
1. N=C(N)NCC/C=C(\NC(=O)[C@H](CCCCN)NC(=O)[C@H](Cc1cnc[nH]1)NC(=O)[C@@H]1CCCN1C(=O)[C@@H](CCCN)NC(=O)CNC(=O)[C@H](CCCCN)NC(=O)[C@@H](NC(=O)[C@@H](N)CCCCN)[C@@H](O)CN)C(=O)O [215.1] (H-K[Dab(3S-OH)]KG[dOrn]PHK[ΔZArg]-OH)
2. C[C@H](NC(=O)[C@@H](NC(=O)[C@@H](N)CCCCN)[C@@H](O)CN)C(=O)NCC(=O)N[C@H](CCCN)C(=O)N1CCC[C@H]1C(=O)N[C@@H](Cc1ccc(Cl)cc1)C(=O)N[C@@H](CCCCN)C(=O)N/C(=C\CCNC(=N)N)C(=O)O [24.97] (H-K[Dab(3S-OH)]AG[dOrn]P[Phe(4-Cl)]K[ΔZArg]-OH)
3. C[C@H](NC(=O)[C@@H](NC(=O)[C@@H](N)CCCCN)[C@@H](O)CN)C(=O)NCC(=O)N[C@H](CCCN)C(=O)N1CCC[C@H]1C(=O)N[C@@H](Cc1cc(F)cc(F)c1)C(=O)N[C@@H](CCCCN)C(=O)N/C(=C\CCNC(=N)N)C(=O)O [24.86] (H-K[Dab(3S-OH)]AG[dOrn]P[Phe(3,5-F2)]K[ΔZArg]-OH)
4. C[C@H](NC(=O)[C@@H](NC(=O)[C@@H](N)CCCCN)[C@@H](O)CN)C(=O)NCC(=O)N[C@H](CCCN)C(=O)N1CCC[C@H]1C(=O)N[C@@H](Cc1ccc(O)cc1)C(=O)N[C@@H](CCCCN)C(=O)N/C(=C\CCNC(=N)N)C(=O)O [24.138] (H-K[Dab(3S-OH)]AG[dOrn]PYK[ΔZArg]-OH)
5. CC(C)NCCCC[C@H](NC(=O)[C@H](Cc1cnc[nH]1)NC(=O)[C@@H]1CCCN1C(=O)[C@@H](CCCN)NC(=O)CNC(=O)[C@H](C)NC(=O)[C@@H](NC(=O)[C@@H](N)CCCCN)[C@@H](O)CN)C(=O)N[C@H](CCCNC(=N)N)C(N)=O [24.127] (H-K[Dab(3S-OH)]AG[dOrn]PH[Lys(iPr)][dR]-NH2)

[A]
["+ (≤32 μg/mL)", "++ (≤8 μg/mL)", "+ (≤32 μg/mL)", "+ (≤32 μg/mL)", "+ (≤32 μg/mL)"]

Look up Ec: MIC Escherichia coli ATCC 25922 for the entries below, preserving their order.
1. C[C@H](NC(=O)[C@@H](NC(=O)[C@@H](N)CCCCN)[C@@H](O)CN)C(=O)NCC(=O)N[C@H](CCCN)C(=O)N1CCC[C@H]1C(=O)N[C@@H](Cc1ccccn1)C(=O)N[C@@H](CCCCN)C(=O)N/C(=C\CCNC(=N)N)C(=O)N[C@@H](CCCCN)C(=O)NCCCCN [24.17] (H-K[Dab(3S-OH)]AG[dOrn]P[2Pal]K[ΔZArg]K-{NH(CH2)4NH2})
2. C[C@H](NC(=O)[C@@H](NC(=O)[C@@H](N)CCCCN)[C@@H](O)CN)C(=O)NCC(=O)N[C@H](CCCN)C(=O)N1C[C@@H](F)C[C@H]1C(=O)N[C@@H](Cc1cnc[nH]1)C(=O)N[C@@H](CCCCN)C(=O)N/C(=C\CCNC(=N)N)C(=O)O [24.144] (H-K[Dab(3S-OH)]AG[dOrn][Pro(cis-4-F)]HK[ΔZArg]-OH)

[A]
1: ++ (≤8 μg/mL); 2: + (≤32 μg/mL)

###

- Tested on: Escherichia coli ATCC 25922
- Method Summary: MIC, broth microdilution (CLSI), reference strain
- Assay Conditions: CAMHB
Square brackets hold non-standard residues; d marks the D form. Peptide text beside a SMILES is read from it. * marks the point of attachment. Dab(3S-OH) = NC[C@H](O)[C@H](N)C(=O)O; ΔZArg = N=C(N)NCC/C=C(\N)C(=O)O; dOrn = NCCC[C@@H](N)C(=O)O; Nva = CCC[C@H](N)C(=O)O; NH(CH2)4NH2 = NCCCCN*
Quantity Name: Ec: MIC Escherichia coli ATCC 25922

The following compounds have reported results that may help.
C[C@H](NC(=O)[C@@H](NC(=O)[C@@H](N)CCCCN)[C@@H](O)CN)C(=O)NCC(=O)N[C@H](CCCN)C(=O)N1CCC[C@H]1C(=O)N[C@@H](CCC(N)=O)C(=O)N[C@@H](CCCCN)C(=O)N/C(=C\CCNC(=N)N)C(=O)O [24.117] (H-K[Dab(3S-OH)]AG[dOrn]PQK[ΔZArg]-OH)
− (>32 μg/mL)
C[C@H](NC(=O)[C@H](CCCCN)NC(=O)[C@H](Cc1cnc[nH]1)NC(=O)[C@@H]1CCCN1C(=O)[C@@H](CCCN)NC(=O)CNC(=O)[C@@H](NC(=O)[C@@H](NC(=O)[C@@H](N)CCCCN)[C@@H](O)CN)[C@@H](O)CN)C(=O)N[C@@H](CCCCN)C(=O)NCCCCN [22.23] (H-K[Dab(3S-OH)][Dab(3S-OH)]G[dOrn]PHKAK-{NH(CH2)4NH2})
− (>32 μg/mL)
C[C@H](NC(=O)[C@@H](NC(=O)[C@@H](N)CCCCN)[C@@H](O)CN)C(=O)NCC(=O)N[C@H](CCCN)C(=O)N1CCC[C@H]1C(=O)N[C@@H](Cc1cnc[nH]1)C(=O)N[C@@H](CCCCN)C(=O)N/C(=C\CCNC(=N)N)C(N)=O [24.125] (H-K[Dab(3S-OH)]AG[dOrn]PHK[ΔZArg]-NH2)
++ (≤8 μg/mL)
CCC[C@H](NC(=O)[C@@H](NC(=O)[C@@H](N)CCCCN)[C@@H](O)CN)C(=O)NCC(=O)N[C@H](CCCN)C(=O)N1CCC[C@H]1C(=O)N[C@@H](Cc1cnc[nH]1)C(=O)N[C@@H](CCCCN)C(=O)N/C(=C\CCNC(=N)N)C(=O)N[C@@H](CCCCN)C(=O)NCCCCN [210.1] (H-K[Dab(3S-OH)][Nva]G[dOrn]PHK[ΔZArg]K-{NH(CH2)4NH2})
− (>32 μg/mL)

[Q] Request body: readout Ec: MIC Escherichia coli ATCC 25922, system Escherichia coli ATCC 25922, query N=C(N)NCC/C=C(\NC(=O)[C@H](CCCCN)NC(=O)[C@H](Cc1c[nH]c2ccccc12)NC(=O)[C@@H]1CCCN1C(=O)[C@@H](CCCN)NC(=O)CNC(=O)[C@@H](NC(=O)[C@@H](NC(=O)[C@@H](N)CCCCN)[C@@H](O)CN)[C@@H](O)CN)C(=O)O [22.41] (H-K[Dab(3S-OH)][Dab(3S-OH)]G[dOrn]PWK[ΔZArg]-OH) . Return the value.
[A] ++ (≤8 μg/mL)
